Study System: human cannabinoid CB1 receptor (Homo sapiens)
Procedure Details: CB1 receptor radioligand ([3H]CP-55,940) displacement binding assay
Experimental Parameters: CoMFA training and test set input; read-out: Experimental activity (pIC50) (converted)
Measurement Label: IC50 (nM)

The cases that follow already have their IC50 on record.
Structure As Smiles	Study System	IC50, nM
O=C(c1ccc2ccccc2c1)n1c(-c2cccnc2)nc2ccc(F)cc21	human cannabinoid CB1 receptor (Homo sapiens)	1770
O=C(c1ccc2ccccc2c1)n1c(-c2cccnc2)nc2cc(F)ccc21	human cannabinoid CB1 receptor (Homo sapiens)	10400
Fc1ccc2nc(-c3ccncc3)n(Cc3cccc4ccccc34)c2c1	human cannabinoid CB1 receptor (Homo sapiens)	1120
c1ccc2cc(Cn3c(-c4ccncc4)nc4ccccc43)ccc2c1	human cannabinoid CB1 receptor (Homo sapiens)	851
c1cncc(-c2nc3ccccc3n2Cc2ccc3ccccc3c2)c1	human cannabinoid CB1 receptor (Homo sapiens)	3380

(P) Cc1cc2nc(-c3ccncc3)n(Cc3ccc4ccccc4c3)c2cc1C
(Q) Fc1ccc2nc(-c3ccncc3)n(Cc3ccc4ccccc4c3)c2c1
INPUT: Could you tell me which of these two has the smaller IC50 figure? First: P Second: Q Respond with the label that goes with your answer.
OUTPUT: P

====

Study System: UniProtKB P21554
Procedure Details: CB1 receptor radioligand ([3H]CP-55,940) displacement binding assay
Experimental Parameters: read-out: CB1 (Ki); displacement of 0.5 nM [3H]CP-55,940; means ± SEM, n = 3; Cheng-Prusoff from IC50
Measurement Label: pKi
Scale for pKi: -log10 of concentration given in mol/L; no unit attached.

pKi reading for Fc1ccc2nc(-c3cccnc3)n(Cc3cccc4ccccc34)c2c1 [Compound 39] : 9.28

====

# pIC50 per entry
Study System: human cannabinoid CB1 receptor (Homo sapiens, UniProt P21554)
Sequence (P21554 whole entry): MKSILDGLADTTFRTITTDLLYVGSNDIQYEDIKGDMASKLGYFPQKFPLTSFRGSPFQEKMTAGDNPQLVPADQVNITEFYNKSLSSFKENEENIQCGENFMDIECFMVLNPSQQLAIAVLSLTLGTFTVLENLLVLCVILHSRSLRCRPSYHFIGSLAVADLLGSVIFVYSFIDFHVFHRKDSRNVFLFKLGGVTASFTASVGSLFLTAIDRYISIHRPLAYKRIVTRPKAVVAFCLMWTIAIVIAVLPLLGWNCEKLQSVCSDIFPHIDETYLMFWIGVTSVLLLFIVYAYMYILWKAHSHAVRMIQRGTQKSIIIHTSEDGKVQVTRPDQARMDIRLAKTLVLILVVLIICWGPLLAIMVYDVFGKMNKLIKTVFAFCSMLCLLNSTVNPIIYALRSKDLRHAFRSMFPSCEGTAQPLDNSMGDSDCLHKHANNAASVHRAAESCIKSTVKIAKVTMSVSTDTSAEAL
Procedure Details: CB1 receptor radioligand ([3H]CP-55,940) displacement binding assay
Experimental Parameters: IC50 (CB1 displacement), displacement of [3H]CP-55,940
pIC50: −log10 of the molar value.

Look over these answered cases.
Molecule	Result
O=C(c1ccc2ccccc2c1)n1c(-c2ccccn2)nc2ccc(F)cc21 [Compound 23]	~7.70
Cc1cc2nc(-c3ccccn3)n(Cc3cccc4ccccc34)c2cc1C [Compound 36]	~7.70
Cc1cc2nc(-c3ccncc3)n(C(=O)c3cccc4ccccc34)c2cc1C [Compound 21]	> 8.00
Fc1ccc2nc(-c3cccnc3)n(Cc3ccc4ccccc4c3)c2c1 [Compound 51]	~7.70
Cc1cc2nc(-c3ccncc3)n(Cc3cccc4ccccc34)c2cc1C [Compound 44]	> 8.00
O=C(c1ccc2ccccc2c1)n1c(-c2ccncc2)nc2ccc(F)cc21 [Compound 31]	> 8.00

Next molecule, please.
get_value(item= Fc1ccc2nc(-c3cccnc3)n(Cc3cccc4ccccc34)c2c1 [Compound 39] , readout=pIC50) returns > 8.00

====

Each record here notes measured melting point.

Here's what some known entries look like.
Structure As Smiles	melting point
Cc1cc2nc(-c3cccnc3)n(Cc3ccc4ccccc4c3)c2cc1C	138.5 to 139.5 °C
Fc1ccc2c(c1)nc(-c1cccnc1)n2Cc1ccc2ccccc2c1	175.7 to 176.8 °C
c1cncc(-c2nc3ccccc3n2Cc2cccc3ccccc23)c1	160.2 to 161.1 °C
Fc1ccc2c(c1)nc(-c1ccccn1)n2Cc1cccc2ccccc12	155.7 to 155.9 °C
Cc1cc2nc(-c3cccnc3)n(C(=O)c3ccc4ccccc4c3)c2cc1C	166.7 to 166.9 °C

Reported melting point of "Cc1cc2nc(-c3ccncc3)n(Cc3ccc4ccccc4c3)c2cc1C" : 133.7 to 134.5 °C

# melting point of "Cc1cc2nc(-c3ccccn3)n(C(=O)c3cccc4ccccc34)c2cc1C" = 167.2 to 168 °C

Documented melting point of "Fc1ccc2c(c1)nc(-c1ccncc1)n2Cc1ccc2ccccc2c1" : 177.8 to 178.5 °C

Lookup result for "O=C(c1ccc2ccccc2c1)n1c(-c2ccncc2)nc2ccccc21" ; measured melting point: 145 to 146.1 °C

The measurements presented in this section are drawn from paper PMC6270614.
